test system: DMS-273; experiment: NCI tumour cell line growth inhibition, 48 h
Active and inactive are the calls of the source. Cut-off read from the data, not from the text of the source: active = GI50 up to about 1.1 µM and inactive = higher.
endpoint: GI50

molecule	endpoint	experimental.result
COc1ccc(NC(=O)C(=O)Cc2nc3ccc([N+](=O)[O-])cc3nc2O)c(OC)c1	GI50	> 100 µM (inactive)
CC1(C)CC(N2CCN(C3CC(C)(C)NC(C)(C)C3)CC2)CC(C)(C)N1	GI50	> 100 µM (inactive)
O=c1c2cccnc2ncn1CCCN1CCCC1	GI50	> 100 µM (inactive)
O=C1NC2(CCCC2)C2CCCCC12O (configuration not stated)	GI50	> 100 µM (inactive)
CCOC(=O)/C(=C/c1cc(OC)ccc1OC)CC(=O)O	GI50	> 100 µM (inactive)
CCCCCCCCCCCC(=O)OC(COC(N)=O)COc1ccc(Cl)cc1 (configuration not stated)	GI50	20.9 µM (inactive)
CCOC(=O)N1C/C(=C\c2ccccc2)C(=O)/C(=C/c2ccccc2)C1	GI50	2.34 µM (inactive)

###

system: HT-29; assay: NCI tumour cell line growth inhibition, 48 h
Calls of active or inactive are those of the source. No stated cut-off is given here; in the data, active = GI50 up to about 1.1 µM and inactive = higher.

compound	GI50
C=C(COC(C)=O)CC(OC(C)=O)c1ccccc1 (centres undefined)	> 100 µM (inactive)
C#CCSc1nc(-c2ccco2)n[nH]1	> 100 µM (inactive)
O=c1c2ccccc2sc2nc(CCl)nn12	12.4 µM (inactive)
Cc1cccc(C(C)C)c1NC(=O)CC1Sc2ccccc2NC1=O (centres undefined)	48.9 µM (inactive)
Fc1cccc(F)c1C1SCc2nc3cc4ccccc4cc3n21 (centres undefined)	20.2 µM (inactive)
COc1ccc(NC(=O)CC(=O)n2nc(-c3ccccc3)c(/N=N/c3ccccc3C)c2-c2ccccc2)cc1	44.9 µM (inactive)
Cc1cccc2c(N)c3cccc(C(=O)NCC[N+](C)(C)Cc4ccc(S(C)(=O)=O)cc4)c3nc12	36.6 µM (inactive)
CN1C(=O)C(CC(=O)O)NC1=S (centres undefined)	> 100 µM (inactive)
[O-][S+]1CSSC1	7.64 µM (inactive)
CCCCNC(=S)N/C=C1\C(=O)Nc2ccccc2C1=O	> 10 µM (inactive)
Cc1cn(C2CC(N=[N+]=[N-])C(C(=O)O)O2)c(=O)[nH]c1=O (centres undefined)	> 100 µM (inactive)
C=CCC(C(=O)OC)C1(C(=O)OC)c2[nH]c3ccccc3c2CCN1Cc1ccccc1 (centres undefined)	> 100 µM (inactive)
COc1cc2c3cc1Oc1c(OC)c(OC)cc4c1[C@@H](Cc1ccc(O)c(c1)Oc1ccc(cc1)C[C@@H]3N(C)CC2)N(C)CC4.c1ccccc1	10.7 µM (inactive)
Cn1c2ccccc2c(=NNc2ccccc2C(=O)O)c2ccccc21	17.7 µM (inactive)
CN(C)/C(=N\C#N)NCc1ccccc1	> 100 µM (inactive)
CC(=O)C12C[C@](C#N)(N3CCCCCC3)C1C=Cc1ccccc12 (some centres undefined)	> 100 µM (inactive)
NCCCCN(CCCN)C(=O)OCc1ccccc1	> 100 µM (inactive)
O=C1C=C(Br)c2c(Br)sc(Br)c21	13.5 µM (inactive)
Clc1ccc(/C=C/c2nc3ccccc3s2)cc1Cl	> 100 µM (inactive)
CC(NCCN(C)C)C1CCC2C3CCc4cc(O)ccc4C3CCC12C (centres undefined)	2.89 µM (inactive)
C[N+](C)(C)CC1Cc2ccccc2C1=O (centres undefined)	6.38 µM (inactive)
O=C(n1[nH]c(=O)n(-c2ccc([N+](=O)[O-])cc2)c1=O)C(Cl)(Cl)Cl	> 75 µM (inactive)
CCCCCCCCCCCCCCCCOCC(COP(=O)([O-])OCC[n+]1ccc(N(C)C)cc1)OCC (centres undefined)	13.9 µM (inactive)
COc1ccc(-c2oc3c(OC)c(OC)c(OC)c(O)c3c(=O)c2OC)cc1O	8.87 µM (inactive)
